Entry source: patent US20250382363A1

biological target: pre-existing anti-drug antibodies (ADA) present in human sera; experiment: pre-existing ADA ELISA, scFv coated, human sera unspiked vs spiked
Recorded metric: No of serum samples >30% inhibition (30% CCP) without SCP (serum samples)
Please reply with the number alone, leaving off any unit.

GET /value?item= PRO3339 (scFv 37-20-B03-sc09.1_(T101N, T146Q)) (scFv, PRO2230 variant; VH substitutions, AHo numbering; also called PRO2230 T101N-T146Q) scFv: DIQMTQSPASLSASVGDRVTITCQASQSIGTYLAWYQQKPGKPPKLLIYRAFILASGVPSRFSGSGSGTDFTLTISSLQPEDFATYYCQSNFYSDSTTIGPNAFGTGTKVTVLGGGGGSGGGGSGGGGSGGGGSEVQLVESGGGLVQPGGSLRLSCAASGFSFNSDYWIYWVRQAPGKGLEWIASIYGGSSGNTQYASWAQGRFTISRDNSKNTVYLQMNSLRAEDNAVYFCARGYVDYGGATDLWGQGTLVQVSS &field=No of serum samples >30% inhibition (30% CCP) without SCP (serum samples) returns 0

PRO3320 (scFv 54-21-H03-sc01_(L12A, T101S, L144K, T146Q)) (scFv, PRO1922 variant; VH substitutions, AHo numbering; also called PRO1922 L12A-T101S-L144K-T146Q) scFv: DIQMTQSPSSLSASVGDRVTITCQASESIYSSLAWYQQKPGKAPKLLIYLASTLASGVPSRFSGSGSGTDFTLTISSLQPEDFATYYCQSTDYTTSTHRNSFGTGTKVTVLGGGGGSGGGGSGGGGSGGGGSEVQLVESGGGAVQPGGSLRLSCAASGFSFSTTYYMCWVRQAPGKGLEWIGCTNTASSVRTYYATWAKGRFTISRDNSKNTVYLQMNSLRAEDSAVYYCARDMGFADYALNLWGQGTKVQVSS yielded No of serum samples >30% inhibition (30% CCP) without SCP (serum samples) of 0
